tested on: HCV 1b genotype; assay: HCV replicon assay (HCV-neo replicon cells, wild-type); format: cell-based, Hepatitis C virus; details: Hepatitis C virus, HCV 1b genotype replicon; class symbols; read-out: EC50 Range against HCV 1b
READOUT_NAME: EC50

INSERT INTO measurements (structure_smiles, readout_name, recorded_result) VALUES
  ('COc1ccc(C(=O)N2CCC[C@H]2C(=O)Nc2ccc(-c3cnc(-c4ccc(NC(=O)[C@@H]5CCCN5C(=O)c5ccc(OC)cc5)cc4)o3)cc2)cc1', 'EC50', '100 to 999 nM');

Inquiry: Checklist item: EC50 tested on HCV 1b genotype, entry O=C(Nc1ccc(-c2cnc(-c3ccc(NC(=O)[C@@H]4C[C@@H](O)CN4C(=O)Cc4cccnc4)cc3)o2)cc1)[C@@H]1C[C@@H](O)CN1C(=O)Cc1cccnc1 , value?
Reply text: 1000 to 10000 nM

---

tested on: HCV 1b genotype; experiment: HCV replicon assay (HCV-neo replicon cells, wild-type); type: cell-based, Hepatitis C virus; conditions: Hepatitis C virus, HCV 1b genotype replicon; class symbol; read-out: EC50 Range against HCV 1b
pEC50: −log10 of the molar value.
READOUT_NAME: pEC50

Solved cases below.
INSERT INTO assay_data (molecule, recorded_result) VALUES
  ('CSC[C@H](NC(=O)Cc1ccccc1)C(=O)Nc1ccc(-c2cnc(-c3ccc(NC(=O)[C@H](CSC)NC(=O)Cc4ccccc4)cc3)o2)cc1 [JG-14]', '6.00 to 7.00'),
  ('O=C(Nc1ccc(-c2nc[nH]c2-c2ccc(NC(=O)[C@@H]3CCCN3C(=O)c3nccc4ccccc34)cc2)cc1)[C@@H]1CCCN1C(=O)c1nccc2ccccc12 [JG-48]', '5.00 to 6.00'),
  ('O=C(Nc1ccc(-c2ccc(-c3ccc(NC(=O)[C@@H]4CCCN4C(=O)OCc4ccccc4)cc3)s2)cc1)[C@@H]1CCCN1C(=O)OCc1ccccc1 [OL-23]', '7.00 to 8.34'),
  ('COc1cc(C(=O)N2CCC[C@H](C(=O)Nc3ccc(-c4nnc(-c5ccc(NC(=O)[C@H]6CCCN(C(=O)c7cc(OC)c8ccccc8n7)C6)cc5)o4)cc3)C2)nc2ccccc12 [RK-26]', '5.00 to 6.00'),
  ('O=C(Nc1ccc(-c2nc[nH]c2-c2ccc(NC(=O)[C@@H]3CCCN3C(=O)c3cc4ccccc4o3)cc2)cc1)[C@@H]1CCCN1C(=O)c1cc2ccccc2o1 [JG-51]', '6.00 to 7.00');

Inquiry: What pEC50 value was documented for this molecule, O=C(Nc1ccc(-c2nncn2-c2ccc(NC(=O)[C@@H]3CCCN3C(=O)OCc3ccccc3)cc2)cc1)[C@@H]1CCCN1C(=O)OCc1ccccc1 [OL-14] ?
Reply text: 5.00 to 6.00

Inquiry: Please give the measured pEC50 for this molecule: CC(O)(C(=O)N1CCC[C@H]1C(=O)Nc1ccc(-c2ncc(-c3ccc(NC(=O)[C@@H]4CCCN4C(=O)[C@@](C)(O)c4ccccc4)cc3)o2)cc1)c1ccccc1 (some centres unmarked) [JG-22]
Reply text: > 8.34

Inquiry: Return reported pEC50; argument: COc1cccc2c(C(=O)N3CCC[C@H]3C(=O)Nc3ccc(-c4ccc(-c5ccc(NC(=O)[C@@H]6CCCN6C(=O)[C@H](O)c6ccccc6)cc5)o4)cc3)nc(Cl)cc12 [JG-64]
Reply text: 7.00 to 8.34

Inquiry: Can you look up the measured pEC50 of CN(C)[C@@H](C(=O)N1CCCC1(C)C(=O)N1CCC[C@H]1C(=O)Nc1ccc(-c2cnc(-c3ccc(NC(=O)[C@@H]4CCCN4C(=O)C4(C)CCCN4C(=O)[C@@H](c4ccccc4)N(C)C)cc3)o2)cc1)c1ccccc1 (stereo partly drawn) [Example D-41] for me?
Reply text: 6.00 to 7.00

Inquiry: Looking for the measured pEC50 of O=C(Nc1ccc(-c2n[nH]nc2-c2ccc(NC(=O)[C@@H]3CCCN3C(=O)OCc3ccccc3)cc2)cc1)[C@@H]1CCCN1C(=O)OCc1ccccc1 [OL-19] , can you help?
Reply text: 7.00 to 8.34

Inquiry: Any idea what its pEC50 is? The molecule is O=C(Nc1ccc(-c2ccc(-c3ccc(NC(=O)[C@@H]4CCCN4C(=O)OCc4ccccc4)cc3)o2)cc1)[C@@H]1CCCN1C(=O)OCc1ccccc1 [JG-54]
Reply text: 6.00 to 7.00
